Where do the numbers come from? From patent EP1247803A2.

- Target Entity: FLK-1 receptor (Mus musculus)
- Construct: expressed in transfected cells; host or cells: NIH3T3 C7#3
- Sequence (P35918 20-1345): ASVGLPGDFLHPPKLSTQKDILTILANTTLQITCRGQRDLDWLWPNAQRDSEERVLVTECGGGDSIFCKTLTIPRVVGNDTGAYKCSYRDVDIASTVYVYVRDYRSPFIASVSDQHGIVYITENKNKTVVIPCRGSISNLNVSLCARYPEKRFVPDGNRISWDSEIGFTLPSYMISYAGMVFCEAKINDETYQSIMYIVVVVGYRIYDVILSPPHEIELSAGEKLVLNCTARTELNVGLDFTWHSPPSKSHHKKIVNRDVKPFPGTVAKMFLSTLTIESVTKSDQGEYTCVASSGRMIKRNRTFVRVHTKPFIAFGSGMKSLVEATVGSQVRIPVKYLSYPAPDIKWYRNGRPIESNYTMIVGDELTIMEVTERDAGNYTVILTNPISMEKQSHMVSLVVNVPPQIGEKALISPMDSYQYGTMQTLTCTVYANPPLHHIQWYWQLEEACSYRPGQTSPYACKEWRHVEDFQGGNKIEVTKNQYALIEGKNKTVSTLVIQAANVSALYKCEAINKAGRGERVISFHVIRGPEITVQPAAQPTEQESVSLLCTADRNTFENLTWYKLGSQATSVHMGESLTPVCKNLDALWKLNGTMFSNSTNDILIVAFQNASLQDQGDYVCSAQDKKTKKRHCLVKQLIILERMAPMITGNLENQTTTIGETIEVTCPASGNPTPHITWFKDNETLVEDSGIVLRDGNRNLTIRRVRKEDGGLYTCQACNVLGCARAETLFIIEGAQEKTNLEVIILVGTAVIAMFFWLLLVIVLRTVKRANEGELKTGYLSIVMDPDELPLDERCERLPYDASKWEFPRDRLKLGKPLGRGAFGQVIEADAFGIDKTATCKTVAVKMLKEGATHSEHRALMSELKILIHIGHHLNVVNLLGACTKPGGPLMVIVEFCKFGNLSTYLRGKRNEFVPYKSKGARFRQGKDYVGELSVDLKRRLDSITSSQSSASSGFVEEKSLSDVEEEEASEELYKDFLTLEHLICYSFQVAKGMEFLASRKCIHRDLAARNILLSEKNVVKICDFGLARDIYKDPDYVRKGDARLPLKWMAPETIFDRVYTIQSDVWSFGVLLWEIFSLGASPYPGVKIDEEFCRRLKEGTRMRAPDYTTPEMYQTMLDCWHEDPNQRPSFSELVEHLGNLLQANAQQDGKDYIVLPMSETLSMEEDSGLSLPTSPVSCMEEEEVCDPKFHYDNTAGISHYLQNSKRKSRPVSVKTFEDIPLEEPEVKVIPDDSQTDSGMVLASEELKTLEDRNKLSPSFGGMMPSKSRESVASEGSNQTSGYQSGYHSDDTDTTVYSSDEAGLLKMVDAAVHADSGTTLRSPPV
- Method Notes: FLK-1 ELISA (kinase activity of the FLK-1 receptor in FLK-1/NIH3T3 cells, VEGF stimulated)
- Type: cell-based

# Compound, Target Entity, Readout Unit, Fik Kinase %Inhibition
data = [
    ("CC(C)c1cc(C=C2C(=O)Nc3ccc(CCCl)cc32)cc(C(C)C)c1Oc1ccccc1", "FLK-1 receptor (Mus musculus)", "%", 12.6),
    ("CC(=O)n1cc(C=C2C(=O)Nc3ccc(CCCl)cc32)c2ccccc21", "FLK-1 receptor (Mus musculus)", "%", 22.3),
    ("O=C1Nc2ccc(CCCl)cc2C1=Cc1csc([N+](=O)[O-])c1", "FLK-1 receptor (Mus musculus)", "%", 6.1),
    ("CC(C)c1cc(C=C2C(=O)Nc3ccc(S(=O)(=O)Nc4ccc(C(F)(F)F)cc4)cc32)cc(C(C)C)c1O", "FLK-1 receptor (Mus musculus)", "%", 8.3),
    ("Cc1[nH]c(C=C2C(=O)Nc3ccc(S(=O)(=O)N4CCOCC4)cc32)c(Br)c1Br", "FLK-1 receptor (Mus musculus)", "%", 1.4),
    ("COc1cc(OC)c(C=C2C(=O)Nc3c(Br)cc(Br)cc32)c(OC)c1", "FLK-1 receptor (Mus musculus)", "%", 14.0),
    ("CNS(=O)(=O)c1ccc2c(c1)C(=Cc1cc(O)c3c(c1O)CCCC3)C(=O)N2", "FLK-1 receptor (Mus musculus)", "%", -26.9),
    ("CSc1ccc(C=C2C(=O)Nc3ccc(CCCl)cc32)s1", "FLK-1 receptor (Mus musculus)", "%", 5.1),
    ("O=C1Nc2c(Br)cc(Br)cc2C1=Cc1cccc(Oc2ccccc2)c1", "FLK-1 receptor (Mus musculus)", "%", -10.9),
    ("C=C(C)C1CC=C(C=C2C(=O)Nc3ccc(S(=O)(=O)Nc4ccc(C(F)(F)F)cc4)cc32)CC1 (stereo not drawn)", "FLK-1 receptor (Mus musculus)", "%", 23.8),
    ("O=C1Nc2ccc(S(=O)(=O)N3CCOCC3)cc2C1=Cc1ccc(Br)cc1", "FLK-1 receptor (Mus musculus)", "%", -0.7),
    ("CNS(=O)(=O)c1ccc2c(c1)C(=Cc1ccc(OC)c(OC)c1OC)C(=O)N2", "FLK-1 receptor (Mus musculus)", "%", 12.4),
    ("CCOC(=O)CCc1c(C(=O)OCC)[nH]c(C=C2C(=O)Nc3ccc(Br)c(C)c32)c1CC(=O)OCC", "FLK-1 receptor (Mus musculus)", "%", 20.5),
    ("O=C1Nc2ccc(CCCl)cc2C1=Cc1cc2c3c(c1O)CCCN3CCC2", "FLK-1 receptor (Mus musculus)", "%", -0.1),
    ("O=C1Nc2ccc(I)cc2C1=Cc1coc2ccc([N+](=O)[O-])cc2c1=O", "FLK-1 receptor (Mus musculus)", "%", 11.7),
    ("CNS(=O)(=O)c1ccc2c(c1)C(=Cc1cc(OC)c(OC)c(OC)c1)C(=O)N2", "FLK-1 receptor (Mus musculus)", "%", 9.1),
    ("Cc1cc(C=C2C(=O)Nc3c(Br)cc(Br)cc32)[nH]n1", "FLK-1 receptor (Mus musculus)", "%", -13.9),
    ("O=C1Nc2ccc(S(=O)(=O)Nc3ccc(C(F)(F)F)cc3)cc2C1=Cc1ccc(F)cc1Cl", "FLK-1 receptor (Mus musculus)", "%", 13.5),
]
